Test system: Human betaherpesvirus 5
Test: Antiviral activity against Human cytomegalovirus T3216 expressing UL97 kinase A588V mutant gene infected in human foreskin fibroblast measured 6 days post infection by SEAP reporter gene assay
Details: Human betaherpesvirus 5, T3216, 144 h
parameter: pEC50
Units for pEC50: none; it is -log10 of a concentration expressed in mol/L.

# query: pEC50 of entry Nc1nc2c(ncn2COC(CO)CO)c(=O)[nH]1
5.91

* * *

System: Human betaherpesvirus 5
Test: Antiviral activity against Human cytomegalovirus T3327 expressing UL97 kinase C603S mutant gene infected in human foreskin fibroblast measured 6 days post infection by SEAP reporter gene assay
Format: functional, organism-based
Conditions: Human betaherpesvirus 5, T3327, 144 h
parameter: pEC50
Units for pEC50: none; it is -log10 of a concentration expressed in mol/L.

# query: pEC50 of entry Nc1nc2c(ncn2COC(CO)CO)c(=O)[nH]1 [GANCICLOVIR]
5.73

* * *

Test system: Human betaherpesvirus 5
Assay: Antiviral activity against Human cytomegalovirus T3146 expressing UL97 kinase K599R mutant gene infected in human foreskin fibroblast measured 6 days post infection by SEAP reporter gene assay
Details: Human betaherpesvirus 5, T3146, 144 h
parameter: EC50 (nM)
Report the figure in nM without appending any unit label.

# query: EC50 of entry Nc1nc2c(ncn2COC(CO)CO)c(=O)[nH]1
940

* * *

Tested on: Human betaherpesvirus 5
Assay: Antiviral activity against Human cytomegalovirus T2255 expressing UL97 kinase A594V mutant gene infected in human foreskin fibroblast measured 6 days post infection by SEAP reporter gene assay
Assay type: functional, organism-based
Conditions: Human betaherpesvirus 5, T2255, 144 h
parameter: EC50

# query: EC50 of entry Nc1nc2c(ncn2COC(CO)CO)c(=O)[nH]1
9.24 µM

* * *

System: Human betaherpesvirus 5
Assay: Antiviral activity against Human cytomegalovirus T3331 expressing UL97 kinase C603R mutant gene infected in human foreskin fibroblast measured 6 days post infection by SEAP reporter gene assay
Assay type: functional, organism-based
Details: Human betaherpesvirus 5, T3331, 144 h
parameter: EC50
Record the result as number plus unit.

Quick check: EC50 on Human betaherpesvirus 5, item Nc1nc2c(ncn2COC(CO)CO)c(=O)[nH]1 ?
8.18 µM

* * *

System: Human betaherpesvirus 5
Assay: Antiviral activity against Human cytomegalovirus T3258 expressing UL97 kinase A594E mutant gene infected in human foreskin fibroblast measured 6 days post infection by SEAP reporter gene assay
Details: Human betaherpesvirus 5, T3258, 144 h
parameter: pEC50
Units for pEC50: none; it is -log10 of a concentration expressed in mol/L.

Quick check: pEC50 on Human betaherpesvirus 5, item Nc1nc2c(ncn2COC(CO)CO)c(=O)[nH]1 ?
5.53

* * *

System: Human betaherpesvirus 5
Assay: Antiviral activity against Human cytomegalovirus T3215 expressing UL97 kinase A478V mutant gene infected in human foreskin fibroblast measured 6 days post infection by SEAP reporter gene assay
Conditions: Human betaherpesvirus 5, T3215, 144 h
parameter: pEC50
Units for pEC50: none; it is -log10 of a concentration expressed in mol/L.

Quick check: pEC50 on Human betaherpesvirus 5, item Nc1nc2c(ncn2COC(CO)CO)c(=O)[nH]1 [GANCICLOVIR] ?
6.02

* * *

Test system: Human betaherpesvirus 5
Assay: Antiviral activity against Human cytomegalovirus T3041 expressing UL97 kinase L600I mutant gene infected in human foreskin fibroblast measured 6 days post infection by SEAP reporter gene assay
Assay type: functional, organism-based
Conditions: Human betaherpesvirus 5, T3041, 144 h
parameter: EC50 (nM)
Report the figure in nM without appending any unit label.

# query: EC50 of entry Nc1nc2c(ncn2COC(CO)CO)c(=O)[nH]1 [GANCICLOVIR]
1500

* * *

Test system: Human betaherpesvirus 5
Experiment: Antiviral activity against Human cytomegalovirus T3326 harboring Frt motif upstream of UL97 kinase N68D L126Q I244V mutant gene infected in human foreskin fibroblast measured 6 days post infection by SEAP reporter gene assay
Settings: Human betaherpesvirus 5, T3326, 144 h
parameter: pEC50
Units for pEC50: none; it is -log10 of a concentration expressed in mol/L.

# query: pEC50 of entry Nc1nc2c(ncn2COC(CO)CO)c(=O)[nH]1
5.96

* * *

Tested on: Human betaherpesvirus 5
Assay: Antiviral activity against Human cytomegalovirus T3243 expressing UL97 kinase T659I mutant gene infected in human foreskin fibroblast measured 6 days post infection by SEAP reporter gene assay
Assay type: functional, organism-based
Conditions: Human betaherpesvirus 5, T3243, 144 h
parameter: EC50 (µM)
Report the figure in µM without appending any unit label.

# query: EC50 of entry Nc1nc2c(ncn2COC(CO)CO)c(=O)[nH]1
1.26
